test system: ICS; test: qHTS profiling for inhibitors of Plasmodium falciparum proliferation (AID 504749); note: nearly all actives have a fitted effect of over 60% in size; conditions: P. falciparum in erythrocytes, SYBR Green DNA, 72 h; series mostly up to 28.7 µM
Records with an inconclusive call do not appear. Active and inactive are the calls of the source. Calls come from the whole dose curve; as a rule, active = well fitted inhibition curve with a large enough effect; inconclusive = small, poorly fitted or top-dose-only effect; inactive = flat fitted curve, though single readings scatter.
Possible outcomes: True for active, False for inactive

[[record]]
compound = "O=c1[nH]c(=O)n(C2C[C@H](O)[C@@H](CO)O2)cc1C(F)(F)F (stereo partly specified)"
system_name = "ICS"
group_label = "False"

[[record]]
compound = "C[C@]12CC[C@@H]3c4ccc(O)cc4CC[C@H]3[C@@H]1C[C@H](O)C2O (stereo partly specified)"
system_name = "ICS"
group_label = "False"

[[record]]
compound = "COc1cccc2c1C(=O)c1c(O)c3c(c(O)c1C2=O)C[C@@](O)(C(=O)CO)C[C@@H]3OC1CC(N)C(O)C(C)O1 (stereo partly specified)"
system_name = "ICS"
group_label = "True"

[[record]]
compound = "C[C@@H]1CC2C3CCC4=CC(=O)C=C[C@]4(C)[C@@]3(F)[C@@H](O)C[C@]2(C)[C@@]1(O)C(=O)COC(=O)c1cccc(S(=O)(=O)O)c1 (stereo partly specified)"
system_name = "ICS"
group_label = "False"

[[record]]
compound = "C/C=C\\C[C@H](C)[C@H](O)[C@H]1C(=O)N[C@@H](CC)C(=O)N(C)CC(=O)N(C)[C@@H](CC(C)C)C(=O)N[C@@H](C(C)C)C(=O)N(C)[C@@H](CC(C)C)C(=O)N[C@@H](C)C(=O)N[C@@H](C)C(=O)N(C)[C@@H](CC(C)C)C(=O)N(C)[C@@H](CC(C)C)C(=O)N(C)[C@@H](C(C)C)C(=O)N1C"
system_name = "ICS"
group_label = "True"

[[record]]
compound = "C=C(CC[C@@H](C)[C@H]1CCC2[C@]1(C)CC[C@]13C[C@@]14CCC(OC(=O)/C=C/c1ccc(O)c(OC)c1)C(C)(C)[C@@H]4CC[C@@]23C)C(C)C (stereo partly specified)"
system_name = "ICS"
group_label = "False"


---

experiment: AP1 Signaling Pathway (AID 357); settings: ME-180 AP-1-bla reporter, EGF-induced, beta-lactamase ratio, 5 h; at 17.2 µM (top of the series) unless noted;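 note: ME-180 reporter cells stimulated with EGF at its EC50 level; % is set by controls: 0 for no effect and ±100 for the full control effect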
Inconclusive results are not listed.
Endpoint Label: activity change, negative = inhibition (%)

[[record]]
compound = "Cc1nn(CC(=O)NCCN2CCOCC2)c(=O)c2ccccc12"
unit_annotation = "%"
recorded_measurement = 5.98

[[record]]
compound = "CCc1nc(NCCN2CCOCC2)c(C#N)c2c1CCCC2"
unit_annotation = "%"
recorded_measurement = -11.1

[[record]]
compound = "CCn1cc(C(=O)NCCCN(C)C)c(=O)c2cc(F)c(N3CCN(C)CC3)cc21"
unit_annotation = "%"
recorded_measurement = -0.851

[[record]]
compound = "CSc1nc2sc3c(c2c2nnnn12)CCC3"
unit_annotation = "%"
recorded_measurement = -5.46

[[record]]
compound = "Cc1nnc(N2CCOCC2)c2ccccc12"
unit_annotation = "%"
recorded_measurement = 5.51

[[record]]
compound = "CN=c1sc2ccccc2n1CC(O)COc1ccccc1 (stereo unspecified)"
unit_annotation = "%"
recorded_measurement = -17.6


---

In this section, each of the molecules is paired with its reported activity, negative = inhibition.
experiment: Stat Signaling Pathway (AID 446); details: ME-180 (cervical carcinoma) SIE beta-lactamase reporter, IL-6 stimulated, 5 h; at 17.2 µM (top of the series) unless noted;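 note: ME-180 cervical cancer cells given 40 pM IL-6 alongside compound; SIE-controlled beta-lactamase reporter measured as 460/530 nm FRET emission ratio; % is set by controls: 0 for no effect and ±100 for the full control effect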
Inconclusive results are not listed.
Endpoint Label: activity, negative = inhibition (%)

[[record]]
molecule = "COc1ccc(Nc2nc(Nc3ccc(OC)cc3)nc(-n3[nH]c(=O)c(C)c3C)n2)cc1"
endpoint_label = "activity, negative = inhibition"
recorded_measurement = 8.62

[[record]]
molecule = "CN(C)c1nc(OCCOC(=O)Nc2ccc(Cl)cc2Cl)nc(N(C)C)n1"
endpoint_label = "activity, negative = inhibition"
recorded_measurement = -7.35

[[record]]
molecule = "Cc1ccc(-c2n[nH]c(=O)c3ccccc23)cc1S(=O)(=O)NCCN1CCOCC1"
endpoint_label = "activity, negative = inhibition"
recorded_measurement = 1.81

[[record]]
molecule = "COc1cccc(Cn2c(Oc3ccccc3)nc3c2c(=O)n(C)c(=O)n3C)c1"
endpoint_label = "activity, negative = inhibition"
recorded_measurement = -11.1

[[record]]
molecule = "CC1CN(c2oc(-c3ccccc3Cl)nc2C#N)CC(C)O1 (stereo unspecified)"
endpoint_label = "activity, negative = inhibition"
recorded_measurement = 9.86

[[record]]
molecule = "CCOC(=O)COc1nc(N(C)C)nc(N(C)C)n1"
endpoint_label = "activity, negative = inhibition"
recorded_measurement = 8.42

[[record]]
molecule = "CCC(NC(=O)Nc1nnc(C(F)(F)F)s1)(C(F)(F)F)C(F)(F)F"
endpoint_label = "activity, negative = inhibition"
recorded_measurement = -38.4

[[record]]
molecule = "C=CCNc1nc(NCc2ccccc2)c(C#N)c2c1CN(C)CC2"
endpoint_label = "activity, negative = inhibition"
recorded_measurement = 25.2

[[record]]
molecule = "CC(=O)c1cc(C#N)c(SCC(=O)C(C)(C)C)nc1C"
endpoint_label = "activity, negative = inhibition"
recorded_measurement = 12.6

[[record]]
molecule = "O=C(CN1C(=O)c2ccccc2S1(=O)=O)NCCSCc1ccco1"
endpoint_label = "activity, negative = inhibition"
recorded_measurement = -4.36

[[record]]
molecule = "Nc1nnnn1N=C1CCCCC1"
endpoint_label = "activity, negative = inhibition"
recorded_measurement = -8.04


---

experiment: Cell Viability - LYMP2-013 (AID 970); conditions: LYMP2-013 lymphoblastoid cells viability; series mostly up to 92.2 µM;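 note: cells exposed to compound for 24 h at 37 °C; nearly all actives have a fitted effect of over 55% in size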
Inconclusive results are not listed. Active and inactive are the calls of the source. Calls follow the shape of the dose curve; as a rule, active = well fitted cell-killing curve with a large enough effect; inconclusive = small, poorly fitted or top-dose-only effect; inactive = flat fitted curve, though single readings scatter.
Possible outcomes: Yes (active), No (inactive)

[[record]]
structure = "CCCCCC/C(C=O)=C\\c1ccccc1"
group_label = "No"

[[record]]
structure = "CNc1ccc(O)cc1"
group_label = "Yes"

[[record]]
structure = "c1ccc2c(c1)-c1cccc3c1c-2cc1ccccc13"
group_label = "No"

[[record]]
structure = "CC(=O)Nc1ccc(C(=O)CCl)cc1"
group_label = "Yes"

[[record]]
structure = "Cc1cc(O)c(C(C)(C)C)cc1Sc1cc(C(C)(C)C)c(O)cc1C"
group_label = "Yes"

[[record]]
structure = "c1ccc2c(c1)ccc1cc3c(ccc4ccccc43)cc12"
group_label = "No"

[[record]]
structure = "Cc1cc(Nc2ccc(O)cc2)ccc1N"
group_label = "Yes"

[[record]]
structure = "O=C(OCC(COC(=O)c1ccccc1)(COC(=O)c1ccccc1)COC(=O)c1ccccc1)c1ccccc1"
group_label = "No"


---

assay: S16 Schwann cell PMP22 intronic element beta-lactamase assay (AID 624044); settings: S16 rat Schwann cells, PMP22 element beta-lactamase FRET, 24 h;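 note: 0% = DMSO and -100% = potassium clavulanate positive control; nearly all actives have a fitted effect of over 15% in size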
Records with an inconclusive call do not appear. Activity calls are given as the source filed them. The call rests on the fitted dose curve.
Endpoint Label: outcome

[[record]]
compound = "Cc1onc(-c2c(F)cccc2Cl)c1C(=O)NC1C(=O)N2C1SC(C)(C)C2C(=O)O (stereo not given)"
recorded_measurement = "inactive"

[[record]]
compound = "C=CCn1c(=O)n(C2OC(CO)C(O)C2O)c2nc(N)[nH]c(=O)c21 (stereo not given)"
recorded_measurement = "inactive"

[[record]]
compound = "CC(=O)OC1C([N+]2(C)CCCCC2)C[C@H]2C3CC[C@H]4C[C@H](OC(C)=O)C([N+]5(C)CCCCC5)CC4(C)C3CCC12C (stereo not given in full)"
recorded_measurement = "inactive"

[[record]]
compound = "OCCN1CC(O)C(O)C(O)C1CO (stereo not given)"
recorded_measurement = "inactive"

[[record]]
compound = "CCCC[C@H]1C(=O)N(c2ccccc2)N(c2ccc(O)cc2)C1=O"
recorded_measurement = "inactive"

[[record]]
compound = "CC(C)(C)C(=O)OCC(=O)C1CCC2C3CCC4=CC(=O)CCC4(C)C3CCC12C (stereo not given)"
recorded_measurement = "inactive"

[[record]]
compound = "O=C1C(I)=CC(=C(c2cc(I)c(O)c(I)c2)c2ccccc2C(=O)O)C=C1I"
recorded_measurement = "inactive"

[[record]]
compound = "C[C@]12C=CC(=O)N[C@@H]1CC[C@@H]1C2CC[C@]2(C)C(C(=O)Nc3cc(C(F)(F)F)ccc3C(F)(F)F)CC[C@@H]12 (stereo not given in full)"
recorded_measurement = "inactive"

[[record]]
compound = "CC(=O)N1CC(O)CC1C(=O)O (stereo not given)"
recorded_measurement = "inactive"

[[record]]
compound = "CCCCN1CC(O)C(O)C(O)C1CO (stereo not given)"
recorded_measurement = "inactive"


---

system: ATS189; assay: qHTS profiling for inhibitors of Plasmodium falciparum proliferation (AID 504749); note: nearly all actives have a fitted effect of over 60% in size; note: potency is the fitted concentration of half-maximal effect; conditions: P. falciparum in erythrocytes, SYBR Green DNA, 72 h; series mostly up to 28.7 µM
Inconclusive results are not listed. The source made the active and inactive calls. Calls follow the shape of the dose curve; as a rule, active = well fitted inhibition curve with a large enough effect; inconclusive = small, poorly fitted or top-dose-only effect; inactive = flat fitted curve, though single readings scatter.
Endpoint Label: Potency

[[record]]
molecule = "CC1(C(=O)O)CCC2(C)CCC3(C)C(=CC(=O)C4C5(C)CCC(O)C(C)(C)C5CCC43C)C2C1 (centres undefined)"
endpoint_label = "Potency"
recorded_measurement = "inactive"

[[record]]
molecule = "NC(=O)c1ncn(C2OC(CO)C(O)C2O)c1N (centres undefined)"
endpoint_label = "Potency"
recorded_measurement = "inactive"

[[record]]
molecule = "Cc1c(C)c2c(c(C)c1O)CCC(C)(CCCC(C)CCCC(C)CCCC(C)C)O2 (centres undefined)"
endpoint_label = "Potency"
recorded_measurement = "inactive"

[[record]]
molecule = "Cc1ccc(Nc2ncccc2C(=O)O)cc1C"
endpoint_label = "Potency"
recorded_measurement = "inactive"

[[record]]
molecule = "CN(C)CC[C@@](O)(c1ccccc1)c1ccccc1Cl"
endpoint_label = "Potency"
recorded_measurement = "5620 nM (active)"

[[record]]
molecule = "Cc1cnc(NC(=O)C2C(=O)c3ccccc3S(=O)(=O)N2C)s1 (centres undefined)"
endpoint_label = "Potency"
recorded_measurement = "inactive"

[[record]]
molecule = "CC[C@@H]1/C=C(\\C)C[C@H](C)C[C@H](OC)[C@H]2O[C@@](O)(C(=O)C(=O)N3CCCC[C@H]3C(=O)O[C@H](/C(C)=C/[C@@H]3CC[C@H](Cl)[C@H](OC)C3)[C@H](C)[C@@H](O)CC1=O)[C@H](C)C[C@@H]2OC"
endpoint_label = "Potency"
recorded_measurement = "inactive"

[[record]]
molecule = "CCOC(=O)C(CCc1ccccc1)NC(C)C(=O)N1Cc2cc(OC)c(OC)cc2CC1C(=O)O (centres undefined)"
endpoint_label = "Potency"
recorded_measurement = "inactive"

[[record]]
molecule = "Nc1nc(/C(=C/CC(=O)O)C(=O)NC2C(=O)N3C(C(=O)O)=CCSC23)cs1 (centres undefined)"
endpoint_label = "Potency"
recorded_measurement = "inactive"

[[record]]
molecule = "C=C1[C@@H]2CC[C@H](C2)C1(C)C"
endpoint_label = "Potency"
recorded_measurement = "inactive"

[[record]]
molecule = "CO[C@H]1OC2O[C@@]3(C)CC[C@H]4[C@H](C)CC[C@@H]([C@H]1C)[C@@]24OO3 (some centres undefined)"
endpoint_label = "Potency"
recorded_measurement = "14.1 nM (active)"

[[record]]
molecule = "C[C@@H]1CCN(C(=O)[C@H](CCCNC(=N)N)NS(=O)(=O)c2cccc3c2NC[C@H](C)C3)[C@@H](C(=O)O)C1"
endpoint_label = "Potency"
recorded_measurement = "inactive"

[[record]]
molecule = "O=C(O)[C@H]1C[C@@H](CP(=O)(O)O)CCN1"
endpoint_label = "Potency"
recorded_measurement = "inactive"

[[record]]
molecule = "OCC1OC(O)C(O)C(O)C1O (centres undefined)"
endpoint_label = "Potency"
recorded_measurement = "inactive"

[[record]]
molecule = "CO/N=C(/C(=O)N[C@@H]1C(=O)N2C(C(=O)O)=C(C[n+]3ccc(N)n3CCO)CS[C@H]12)c1csc(N)n1"
endpoint_label = "Potency"
recorded_measurement = "inactive"

[[record]]
molecule = "C=CC1CN2CCC1CC2[C@@H](O)c1ccnc2ccc(OC)cc12 (some centres undefined)"
endpoint_label = "Potency"
recorded_measurement = "316 nM (active)"

[[record]]
molecule = "O=[N+]([O-])O[C@H]1CO[C@H]2[C@@H]1OC[C@H]2O"
endpoint_label = "Potency"
recorded_measurement = "inactive"

[[record]]
molecule = "C[C@@H]1CC2[C@@H]3C[C@H](F)C4=CC(=O)C(Cl)=C[C@]4(C)[C@@]3(F)[C@H](O)C[C@]2(C)[C@@]1(O)C(=O)CO (some centres undefined)"
endpoint_label = "Potency"
recorded_measurement = "inactive"

[[record]]
molecule = "O=C(O)Cc1sc(-c2ccc(Cl)cc2)nc1-c1ccccc1"
endpoint_label = "Potency"
recorded_measurement = "inactive"

